Biological target: human 5-lipoxygenase enzyme (Homo sapiens)
Construct: endogenous in cells; host or cells: human whole blood (leukocytes) stimulated with A23187
Sequence (P09917 whole entry): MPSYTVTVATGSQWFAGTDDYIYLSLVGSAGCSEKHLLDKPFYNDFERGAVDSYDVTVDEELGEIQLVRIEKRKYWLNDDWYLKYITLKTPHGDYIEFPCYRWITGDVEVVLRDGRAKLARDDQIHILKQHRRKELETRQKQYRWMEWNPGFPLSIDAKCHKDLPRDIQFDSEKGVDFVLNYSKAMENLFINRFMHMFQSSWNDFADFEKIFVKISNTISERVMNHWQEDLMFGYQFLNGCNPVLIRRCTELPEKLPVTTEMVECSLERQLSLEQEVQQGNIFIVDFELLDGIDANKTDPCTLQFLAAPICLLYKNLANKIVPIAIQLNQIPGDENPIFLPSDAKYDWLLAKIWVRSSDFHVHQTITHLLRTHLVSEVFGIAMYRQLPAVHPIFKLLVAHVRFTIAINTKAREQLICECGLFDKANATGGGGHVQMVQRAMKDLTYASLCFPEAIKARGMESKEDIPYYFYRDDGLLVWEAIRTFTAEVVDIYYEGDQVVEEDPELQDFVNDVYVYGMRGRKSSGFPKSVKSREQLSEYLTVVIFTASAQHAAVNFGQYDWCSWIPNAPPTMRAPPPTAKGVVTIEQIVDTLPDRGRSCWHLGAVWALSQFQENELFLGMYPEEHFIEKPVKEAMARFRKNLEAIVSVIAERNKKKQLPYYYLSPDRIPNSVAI
Assay: Inhibition of LTB4 production in human whole blood
Format: cell-based
Procedure: This assay examines the ability of a compound to inhibit leukotriene B4 production from human blood stimulated with calcium ionophore. […] The procedure for the assay is as follows. […] From this a percent inhibition of LTB4 production by each concentration of test compound is calculated and the IC50 for inhibition of LTB4 production for each test compound is determined.
OBSERVED_PROPERTY: pIC50
Scale: negative log10 of molar concentration, which is what pIC50 denotes.

The molecule NC(=O)N(O)CCC#Cc1ccc(CN2CCN(C(c3ccc(F)cc3)c3ccc(F)cc3)CC2)o1 , when measured on human 5-lipoxygenase enzyme (Homo sapiens), yielded pIC50 of 6.85

====

Biological target: human cloned H1 receptor (Homo sapiens)
Sequence (P35367 whole entry): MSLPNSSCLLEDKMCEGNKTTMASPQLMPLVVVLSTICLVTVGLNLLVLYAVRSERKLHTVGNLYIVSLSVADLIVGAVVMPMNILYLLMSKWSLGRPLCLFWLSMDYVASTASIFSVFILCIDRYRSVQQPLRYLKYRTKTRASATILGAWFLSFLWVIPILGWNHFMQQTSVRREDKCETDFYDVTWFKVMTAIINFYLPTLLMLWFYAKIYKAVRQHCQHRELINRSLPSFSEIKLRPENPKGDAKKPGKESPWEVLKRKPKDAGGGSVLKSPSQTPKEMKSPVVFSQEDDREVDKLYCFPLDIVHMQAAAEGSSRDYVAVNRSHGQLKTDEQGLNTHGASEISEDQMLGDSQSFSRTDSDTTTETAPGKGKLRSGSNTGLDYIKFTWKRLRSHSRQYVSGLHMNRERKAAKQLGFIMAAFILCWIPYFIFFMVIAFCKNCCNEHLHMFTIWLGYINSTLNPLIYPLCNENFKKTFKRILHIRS
pKi: −log10 of the molar value.
Label MET when pKi is at or above 8; otherwise label NOT MET.

Field: example entries. Status: answers known.
{"SMILES_DATA": "NC(=O)N(O)CCC#Cc1ccc(CN2CCN([C@H](c3ccccc3)c3ccc(Cl)cc3)CC2)o1", "QUALITATIVE_LABEL": "NOT MET"}
{"SMILES_DATA": "NC(=O)N(O)CCC#Cc1ccc(OCCN2CCN(C(c3ccc(F)cc3)c3ccc(F)cc3)CC2)cc1[N+](=O)[O-]", "QUALITATIVE_LABEL": "NOT MET"}
{"SMILES_DATA": "NC(=O)N(O)CCC#C[C@@H]1CC[C@@H](CN2CCN([C@H](c3ccccc3)c3ccc(Cl)cc3)CC2)O1", "QUALITATIVE_LABEL": "NOT MET"}

Ask | Given NC(=O)N(O)CCCCc1cccc(OCCN2CCN(C(c3ccccc3)c3ccccc3)CC2)c1 , state whether its pKi is at least 8.
Reply | NOT MET

Ask | Given NC(=O)N(O)Cc1ccc(C#CCN2CCN([C@H](c3ccccc3)c3ccc(Cl)cc3)CC2)cc1 , state whether its pKi is at least 8.
Reply | NOT MET

Ask | Given NC(=O)N(O)Cc1ccc(OCCN2CCN([C@H](c3ccccc3)c3ccc(Cl)cc3)CC2)cc1 , state whether its pKi is at least 8.
Reply | NOT MET

Ask | Given NC(=O)N(O)CCC#Cc1ccc(CN2CCN(C(c3ccc(F)cc3)c3ccc(F)cc3)CC2)o1 , state whether its pKi is at least 8.
Reply | NOT MET

Ask | Given NC(=O)N(O)CCC#Cc1ccc(OCCN2CCN([C@H](c3ccccc3)c3ccc(Cl)cc3)CC2)c(C(=O)O)c1 , state whether its pKi is at least 8.
Reply | MET

Ask | Given NC(=O)N(O)Cc1ccc(CN2CCN([C@H](c3ccccc3)c3ccc(Cl)cc3)CC2)o1 , state whether its pKi is at least 8.
Reply | MET

====

Target: human 5-lipoxygenase enzyme (Homo sapiens)
Construct: endogenous in cells; host or cells: human whole blood (leukocytes) stimulated with A23187
Assay: Inhibition of LTB4 production in human whole blood
Assay type: cell-based
Details: human whole blood, calcium ionophore A23187 50 μM, LTB4 by EIA; read-out: HWB IC50
OBSERVED_PROPERTY: pIC50
Scale: negative log10 of molar concentration, which is what pIC50 denotes.

Use these answered entries as a reference point.
{"COMPOUND": "NC(=O)N(O)Cc1cccc(OCCN2CCN([C@H](c3ccccc3)c3ccc(Cl)cc3)CC2)c1", "MEASURED_TARGET": "human 5-lipoxygenase enzyme (Homo sapiens)", "pIC50": 5.69}
{"COMPOUND": "NC(=O)N(O)CCC#Cc1ccc(OCCN2CCC(=C3c4ccc(Cl)cc4CCc4cccnc43)CC2)cc1", "MEASURED_TARGET": "human 5-lipoxygenase enzyme (Homo sapiens)", "pIC50": 6.58}
{"COMPOUND": "NC(=O)N(O)Cc1cccc(C#CCN2CCN([C@H](c3ccccc3)c3ccc(Cl)cc3)CC2)c1", "MEASURED_TARGET": "human 5-lipoxygenase enzyme (Homo sapiens)", "pIC50": 5.24}
{"COMPOUND": "CN(O)C(=O)NCc1cccc(OCCN2CCN([C@H](c3ccccc3)c3ccc(Cl)cc3)CC2)c1", "MEASURED_TARGET": "human 5-lipoxygenase enzyme (Homo sapiens)", "pIC50": 6.60}
{"COMPOUND": "NC(=O)N(O)CCCCc1cccc(OCCN2CCN(C(c3ccccc3)c3ccccc3)CC2)c1", "MEASURED_TARGET": "human 5-lipoxygenase enzyme (Homo sapiens)", "pIC50": 6.39}
{"COMPOUND": "NC(=O)N(O)CCC#Cc1ccc(OCCN2CCN([C@H](c3ccccc3)c3ccc(Cl)cc3)CC2)c(C(=O)O)c1", "MEASURED_TARGET": "human 5-lipoxygenase enzyme (Homo sapiens)", "pIC50": 5.18}
{"COMPOUND": "NC(=O)N(O)CCC#C[C@@H]1CC[C@@H](CN2CCN([C@H](c3ccccc3)c3ccc(Cl)cc3)CC2)O1", "MEASURED_TARGET": "human 5-lipoxygenase enzyme (Homo sapiens)", "pIC50": 6.50}
{"COMPOUND": "NC(=O)N(O)CCC#Cc1ccc(CN2CCN([C@H](c3ccccc3)c3ccc(Cl)cc3)CC2)o1", "MEASURED_TARGET": "human 5-lipoxygenase enzyme (Homo sapiens)", "pIC50": 6.19}

The compound NC(=O)N(O)Cc1ccc(CN2CCN([C@H](c3ccccc3)c3ccc(Cl)cc3)CC2)o1 , when measured on human 5-lipoxygenase enzyme (Homo sapiens), yielded pIC50 of 5.77

The compound COC(=O)c1cc(CCCCN(O)C(N)=O)ccc1OCCN1CCN([C@H](c2ccccc2)c2ccc(Cl)cc2)CC1 , when measured on human 5-lipoxygenase enzyme (Homo sapiens), yielded pIC50 of 6.91

The compound NC(=O)N(O)CCCCc1ccc(OCCN2CCN([C@H](c3ccccc3)c3ccc(Cl)cc3)CC2)c(C(=O)O)c1 , when measured on human 5-lipoxygenase enzyme (Homo sapiens), yielded pIC50 of 5.56

The compound NC(=O)N(O)CCOCCN1CCN([C@H](c2ccccc2)c2ccc(Cl)cc2)CC1 (racemic) , when measured on human 5-lipoxygenase enzyme (Homo sapiens), yielded pIC50 of 5.68

The compound NC(=O)N(O)CCC#Cc1ccc(OCCN2CCN([C@H](c3ccccc3)c3ccc(Cl)cc3)CC2)cc1 , when measured on human 5-lipoxygenase enzyme (Homo sapiens), yielded pIC50 of 6.57

The compound NC(=O)N(O)CCC#Cc1ccc(OCCCN2CCN([C@H](c3ccccc3)c3ccc(Cl)cc3)CC2)cc1 , when measured on human 5-lipoxygenase enzyme (Homo sapiens), yielded pIC50 of 6.98

The compound NC(=O)c1cc(C#CCCN(O)C(N)=O)ccc1OCCN1CCN([C@H](c2ccccc2)c2ccc(Cl)cc2)CC1 , when measured on human 5-lipoxygenase enzyme (Homo sapiens), yielded pIC50 of 7.07

====

Molecular target: 15-lipoxygenase (Oryctolagus cuniculus, UniProt P12530)
Sequence (P12530 1-663): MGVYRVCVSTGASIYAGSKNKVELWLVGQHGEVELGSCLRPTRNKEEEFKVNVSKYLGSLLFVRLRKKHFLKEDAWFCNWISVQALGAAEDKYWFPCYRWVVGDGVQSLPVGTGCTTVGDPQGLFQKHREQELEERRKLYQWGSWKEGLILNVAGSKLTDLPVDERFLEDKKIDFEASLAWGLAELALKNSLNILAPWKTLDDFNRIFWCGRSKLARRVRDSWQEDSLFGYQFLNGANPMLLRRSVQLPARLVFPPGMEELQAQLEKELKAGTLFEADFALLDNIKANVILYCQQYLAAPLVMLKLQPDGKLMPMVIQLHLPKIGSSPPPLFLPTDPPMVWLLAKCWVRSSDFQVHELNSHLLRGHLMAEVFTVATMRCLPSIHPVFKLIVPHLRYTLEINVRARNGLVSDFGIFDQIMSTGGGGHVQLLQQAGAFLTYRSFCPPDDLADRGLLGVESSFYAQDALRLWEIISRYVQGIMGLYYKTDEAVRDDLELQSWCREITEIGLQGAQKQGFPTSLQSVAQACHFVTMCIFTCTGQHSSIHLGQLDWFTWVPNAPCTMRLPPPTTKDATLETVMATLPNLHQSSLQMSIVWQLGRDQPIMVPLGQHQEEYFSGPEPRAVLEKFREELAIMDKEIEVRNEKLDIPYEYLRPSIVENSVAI
Assay: Inhibition of 15-lipoxygenase (15-HETE production)
Settings: 15-lipoxygenase from rabbit peritoneal polymorphonuclear leukocytes, 5 min at 37° C.
OBSERVED_PROPERTY: IC50 (µM)
State just the number; it will be interpreted in µM.

Use these answered entries as a reference point.
{"COMPOUND": "NC(=O)N(O)Cc1ccc(OCCN2CCN([C@H](c3ccccc3)c3ccc(Cl)cc3)CC2)cc1 [Compound 1]", "IC50, µM": 1.3}
{"COMPOUND": "NC(=O)c1cc(C#CCCN(O)C(N)=O)ccc1OCCN1CCN([C@H](c2ccccc2)c2ccc(Cl)cc2)CC1 [Compound 35]", "IC50, µM": 0.046}
{"COMPOUND": "NC(=O)N(O)CCC#Cc1ccc(OCCCCN2CCN(C(c3ccc(F)cc3)c3ccc(F)cc3)CC2)cc1 [Compound 80]", "IC50, µM": 0.11}
{"COMPOUND": "NC(=O)N(O)CCC#Cc1ccc(OCCN2CCC(=C3c4ccc(Cl)cc4CCc4cccnc43)CC2)cc1 [Compound 32]", "IC50, µM": 0.17}

Shift focus to the following entry.
In plain terms, NC(=O)N(O)CCC#Cc1ccc(OCCCN2CCN([C@H](c3ccccc3)c3ccc(Cl)cc3)CC2)cc1 [Compound 52] has a documented IC50 of 0.061
